Reference source: ChEMBL document CHEMBL1201862

Give EC50 for every item shown.
Target: Heat shock factor protein 1 (Mus musculus)
Sequence (P38532 whole entry): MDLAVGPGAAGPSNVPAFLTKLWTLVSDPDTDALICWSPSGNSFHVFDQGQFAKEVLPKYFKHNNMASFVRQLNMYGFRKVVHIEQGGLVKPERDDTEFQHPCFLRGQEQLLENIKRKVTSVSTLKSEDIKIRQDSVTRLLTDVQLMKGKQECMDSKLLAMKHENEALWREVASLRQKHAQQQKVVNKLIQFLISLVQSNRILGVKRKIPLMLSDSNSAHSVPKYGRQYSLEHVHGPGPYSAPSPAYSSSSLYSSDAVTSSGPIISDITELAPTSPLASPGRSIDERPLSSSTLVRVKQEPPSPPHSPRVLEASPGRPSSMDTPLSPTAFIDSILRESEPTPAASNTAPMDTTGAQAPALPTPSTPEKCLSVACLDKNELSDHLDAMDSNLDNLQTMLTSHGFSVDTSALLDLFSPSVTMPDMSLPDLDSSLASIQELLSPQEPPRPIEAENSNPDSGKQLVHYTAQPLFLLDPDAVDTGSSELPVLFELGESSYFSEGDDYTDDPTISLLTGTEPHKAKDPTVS
Assay: inhibition of MG132-induced HSE-luciferase signal, confirmation, cell-based, NIH3T3, luminescence, dose retest (AID 2382);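 further: NIH3T3 fibroblasts with HSF1-driven luciferase reporter stressed by proteasome inhibitor MG132; luminescence from HSF1-driven luciferase expression after 8 hours of MG132 stress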
Type: functional
The source made the active and inactive calls. No stated cut-off is given here; in the data, actives have a measured EC50 and inactives only a lower limit.

query: # EC50 lookup, item CCc1c(C)nc2ccc(C)cc2c1O
result: > 195 µM (not active)

query: Also need O=C1c2cccc3c([N+](=O)[O-])ccc(c23)C(=O)N1c1ccccn1 , thanks.
result: 12.8 µM (active)

query: Moving on to the next molecule: CC(C)Cn1c(N2CCN(C(=O)/C=C/c3ccccc3)CC2)nc2ccccc21
result: > 195 µM (not active)

query: Here is the next molecule: CCOC(=O)c1cc(C#N)c(NCc2ccccc2)nc1C
result: > 195 µM (not active)

query: # repeat for COc1ccc(-n2cc([N+](=O)[O-])c(=O)c3ccc(Cl)cc32)cc1
result: > 195 µM (not active)

query: Please do the same for Oc1c(CN2CCOCC2)cc(COCc2ccccc2)c2cccnc12 as well.
result: 36.3 µM (active)
